B1: tRNA (parent)
chain: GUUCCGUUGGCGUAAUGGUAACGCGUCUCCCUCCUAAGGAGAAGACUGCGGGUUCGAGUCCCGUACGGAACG

# Variants of: B1
# assay_info: yeast fitness relative to wild type (ratio to wild type); higher = fitter; tRNA-Arg(CCU), competitive growth, 37 C, YPD
Fewer inactive variants are shown than the library holds.
Measured yeast fitness by item
measurement_kind: yeast fitness

- G12C G17A: 0.673
- G9A U47C: 0.909
- U13G U35C A70U: 0.508
- U13C G25C C31G: 0.877
- U13C U16G: 0.865
- C5A G48C: 0.953
